All values here come from paper PMC9884426.

test summary: Plasma pharmacokinetics of oral NMP by LCMSMS
Format: in vivo, human
test context: human, plasma, po, 100 mg, oral 100 mg; individual profiles, patient RMH-02 occasions 1-5; plasma; read-out: Tmax
quantity: Tmax (min)
Use min as the unit, but write only the number.

**Q:** Using the record for CN1CCCC1=O , state its measured Tmax.
**A:** 30

====

test summary: Plasma pharmacokinetics of oral NMP by LCMSMS
Assay type: in vivo, human
test context: human, plasma, po, all dose levels 25-800 mg oral; N = 29 profiles; plasma; read-out: Cmax, Overall Average
Protocol: Blood samples were taken from patients before NMP and at one, two, four, eight and 24 h post dose. Plasma samples (20 μl) were prepared by adding five volumes of methanol containing deuterated internal standard. The samples were vortexed then centrifuged, and the supernatant was transferred to a vial and injected onto the LCMSMS. The LCMSMS system consisted of a Shimadzu UHPLC with a SCIEX 6500QTrap, a KinetexC18 (3 × 50 mm, 2.6 μm) column and using a gradient of 0.1% formic acid and acetonitrile. […]
quantity: Cmax (ng/mL)
Use ng/mL as the unit, but write only the number.

**Q:** Using the record for CN1CCCC1=O , state its measured Cmax.
**A:** 5290
